- Tested on: H1975
- protocol notes: In vitro drug sensitivity test of cells, MTS method
- Format: cell-based
- measurement setup: H1975 human non-small cell lung adenocarcinoma cells, culture time 72 h-216 h
measurement label: IC50 (µM)
Numbers only; they are read as µM.

get_value(item= N.N.[Cl][Pt][Cl] [Cisplatin, cis-diaminedichloroplatinum(II)] , readout=IC50) returns 7

---

- Test system: T84
- protocol notes: In vitro drug sensitivity test of cells, MTS method
- Assay type: cell-based
- measurement setup: T84 human colon cancer cells, culture time 72 h-216 h
Counter-ions that a name gives are not always drawn.
measurement label: pIC50
Scale: negative log10 of molar concentration, which is what pIC50 denotes.

get_value(item= O=C(c1cc(Cc2n[nH]c(=O)c3ccccc23)ccc1F)N1CCN(C(=O)C2CC2)CC1 , readout=pIC50) returns 5.23

get_value(item= CC[C@@]1(O)C(=O)OCc2c1cc1n(c2=O)Cc2cc3c(CN(C)C)c(O)ccc3nc2-1 [Topotecan, Topotecan hydrochloride hydrate] , readout=pIC50) returns 8.12

get_value(item= CC(=O)O[C@H]1C(=O)[C@@]2(C)[C@H]([C@H](OC(=O)c3ccccc3)[C@]3(O)C[C@H](OC(=O)[C@H](O)[C@@H](NC(=O)c4ccccc4)c4ccccc4)C(C)=C1C3(C)C)[C@]1(OC(C)=O)CO[C@@H]1C[C@@H]2O , readout=pIC50) returns 7.49

get_value(item= N.N.[Cl][Pt][Cl] [Cisplatin, cis-diaminedichloroplatinum(II)] , readout=pIC50) returns 6.36

---

- Test system: HT29
- protocol notes: In vitro drug sensitivity test of cells, MTS method
- Assay type: cell-based
- measurement setup: HT29 human colon cancer cells, culture time 72 h-216 h
measurement label: pIC50
Scale: negative log10 of molar concentration, which is what pIC50 denotes.

The compound N.N.[Cl][Pt][Cl] [Cisplatin, cis-diaminedichloroplatinum(II)] , when measured on HT29, yielded pIC50 of 6.16
